system: HOP-62 NSCLC; test: NCI tumour cell line growth inhibition, 48 h; in the data active = GI50 below about 0.43 µM; inactive = the rest
Respond with a class label; see 1 (yes) = active, 0 (no) = inactive

[Q] Recorded test outcome, item `COc1cc(Nc2ccnc(N3CCN(c4ccnc5cc(Cl)ccc45)CC3)n2)cc(OC)c1`
[A] 0 (no)

[Q] Recorded test outcome, item `S=C(N/N=C/c1cc(Cl)cc(Cl)c1)NC12CC3CC(CC(C3)C1)C2`
[A] 0 (no)

[Q] Recorded test outcome, item Cc1ccc(C(=O)/C(=C/c2ccc([N+](=O)[O-])cc2)S(=O)Cc2ccccc2)cc1 (configuration not stated)
[A] 0 (no)

[Q] Recorded test outcome, item `C[n+]1cc2c3c(ccc2c2ccc4cc5c(cc4c21)OCO5)OCO3`
[A] 1 (yes)

[Q] Recorded test outcome, item `C#C[C@]1(O)CC[C@H]2[C@@H]3CC=C4c5nc(Nc6ccccn6)sc5CC[C@]4(C)[C@H]3CC[C@@]21C`
[A] 0 (no)

[Q] Recorded test outcome, item `CC(=O)c1cccc(N(/C=C/C(=O)C(F)(F)F)CC(=O)c2ccc(Cl)cc2)c1`
[A] 0 (no)

[Q] Recorded test outcome, item `CS(=O)(=O)c1ccc(Cl)c([N+](=O)[O-])c1`
[A] 0 (no)

====

tested on: HT29 colon; assay: NCI tumour cell line growth inhibition, 48 h; in the data active = GI50 below about 0.43 µM; inactive = the rest
Respond with a class label; see 1 = active, -1 = inactive

[Q] Recorded test outcome, item `CSc1ccc(C2=Nn3c(nnc3-c3ccc(F)c(Cl)c3)SC2)cc1`
[A] -1

[Q] Recorded test outcome, item `Cc1cccc(NC(=O)c2sc3nc4c(cc3c2N)CCCC4)c1C`
[A] 1

[Q] Recorded test outcome, item `COc1cc(-c2csc(NC(=O)c3cc(C(F)(F)F)cc(C(F)(F)F)c3)n2)cc(OC)c1OC`
[A] -1

[Q] Recorded test outcome, item `CNC(=O)Nc1ccc(-c2nc(N3CCOCC3)nc3c2cnn3C2CCOCC2)cc1`
[A] 1

[Q] Recorded test outcome, item `C[n+]1cc2c3c(ccc2c2ccc4cc5c(cc4c21)OCO5)OCO3`
[A] -1

[Q] Recorded test outcome, item CC(C)N(C(C)C)[PH+]1O[PH+](N(C(C)C)C(C)C)O[PH+](N(C(C)C)C(C)C)O[PH+](N(C(C)C)C(C)C)O[PH+](N(C(C)C)C(C)C)O1.[C-]#[O+].[C-]#[O+].[C-]#[O+].[C-]#[O+].[C-]#[O+].[C-]#[O+].[C-]#[O+].[Cr].[Cr] (stereo not given)
[A] -1

[Q] Recorded test outcome, item `S=C(N/N=C/c1cc(Cl)cc(Cl)c1)NC12CC3CC(CC(C3)C1)C2`
[A] -1

[Q] Recorded test outcome, item N/C(=N\OC(=O)c1ccccc1)C(C(=O)NOC(=O)c1ccccc1)C1CCCCC1 (stereo not given)
[A] -1

[Q] Recorded test outcome, item `CS(=O)(=O)c1ccc(Cl)c([N+](=O)[O-])c1`
[A] -1

[Q] Recorded test outcome, item `Cn1cc(C2=C(c3cn(C)c4ccc(N)cc34)C(=O)NC2=O)c2ccccc21`
[A] -1

====

test system: U251 CNS; test: NCI tumour cell line growth inhibition, 48 h
assay endpoint: TGI

[Q] Provide TGI value for the following compound: COc1cc(/C=C2\CN(C)CC3=C2Nc2nc(SC)[nH]c(=O)c2C3c2cc(OC)c(OC)c(OC)c2)cc(OC)c1OC (centres undefined)
[A] 4.14 µM

[Q] Provide TGI value for the following compound: CCCCN1C(=O)CC2[C@@H]3CCc4cc(OC)ccc4C3CC[C@]2(C)C1=O (some centres undefined)
[A] > 10 µM

[Q] Provide TGI value for the following compound: `O=[N+]([O-])c1ccc(N=Nc2c(O)[nH]c3ccc([N+](=O)[O-])cc23)cc1`
[A] 41.7 µM

[Q] Provide TGI value for the following compound: `O=c1oc2ccccc2c(O)c1C=NC(=S)c1ccncc1`
[A] > 100 µM

[Q] Provide TGI value for the following compound: `Nc1nc2c(ncn2Cc2ccccc2CCO)c(=O)[nH]1`
[A] > 100 µM

[Q] Provide TGI value for the following compound: CCCCCCCCCCCCNC(=O)CCC(NC(=O)c1ccc(N(C)Cc2cnc3nc(N)nc(N)c3n2)cc1)C(=O)NCCCCCCCCCCCC (centres undefined)
[A] 24.7 µM

[Q] Provide TGI value for the following compound: `COc1cc(Nc2ccnc(N3CCN(c4ccnc5cc(Cl)ccc45)CC3)n2)cc(OC)c1`
[A] > 26.9 µM

[Q] Provide TGI value for the following compound: `O=C(CCc1nc(=S)[nH][nH]1)NC12CC3CC(CC(C3)C1)C2`
[A] > 100 µM

[Q] Provide TGI value for the following compound: `C[n+]1cc2c3c(ccc2c2ccc4cc5c(cc4c21)OCO5)OCO3`
[A] 1.28 µM

====

tested on: CCRF-CEM leukemia; experiment: NCI tumour cell line growth inhibition, 48 h
assay endpoint: TGI

[Q] Provide TGI value for the following compound: CC(C)c1cccc(C(C)C)c1NC(=O)C(=O)C(C(=O)c1ccccc1-c1ccccc1)C1OC(=O)c2ccccc21 (centres undefined)
[A] 68.5 µM

[Q] Provide TGI value for the following compound: N/C(=N\OC(=O)c1ccccc1)C(C(=O)NOC(=O)c1ccccc1)C1CCCCC1 (centres undefined)
[A] 9.79 µM

[Q] Provide TGI value for the following compound: `Cc1cc([N+](=O)[O-])c(C)c2c1[nH]c1ccc(/C(CCC3CCCC3)=N\N)cc12`
[A] 44.9 µM

[Q] Provide TGI value for the following compound: CC(C)N(C(=O)C12C3C4C1C1C2C3C41C(O)C(C)(C)C)C(C)C (centres undefined)
[A] > 50 µM

[Q] Provide TGI value for the following compound: CCOc1ccc(NCC2CC/C(=C\C=C\c3ccccc3)C2=O)cc1 (centres undefined)
[A] > 100 µM

[Q] Provide TGI value for the following compound: Cc1ccc2c(c1C)CC1(Cc3c(C)ccc(C)c3C1=O)C2=O (centres undefined)
[A] > 100 µM

[Q] Provide TGI value for the following compound: `CCOC(=O)c1c(NC(=O)c2ccc(C(C)C)cc2)sc2c(CN(C)C)c(O)ccc12`
[A] 7.35 µM

[Q] Provide TGI value for the following compound: CC1(C)O[C@H]2OC3CCC(=O)CC3(O)[C@H]2O1 (some centres undefined)
[A] > 100 µM

[Q] Provide TGI value for the following compound: `CCN1CCN(Cc2ccc(NC(=O)Nc3ccc(-n4ccc5c(NC(=O)c6ccccc6)nccc54)cc3)cc2C(F)(F)F)CC1`
[A] > 100 µM

====

system: IGROV1 ovarian; assay: NCI tumour cell line growth inhibition, 48 h
Field: TGI. Provide a value for each of the compounds that follow.

[Q] Provide TGI value for the following compound: `COc1ccc2nc(-c3ccccc3)cc(Nc3cccc(/C(C)=N\O)c3)c2c1`
[A] > 100 µM

[Q] Provide TGI value for the following compound: CCOC(=O)/C=C(/C=C\COC1CCCCO1)c1ccccc1 (stereo not given)
[A] > 100 µM

[Q] Provide TGI value for the following compound: O=C(O)C1=NN(c2ccc(S(=O)(=O)O)cc2)C2(C1)C(Cl)C(=O)N2c1nc2ccccc2s1 (stereo not given)
[A] 21.5 µM

[Q] Provide TGI value for the following compound: `COc1ccc(C(=O)N2c3ccccc3Sc3ccccc32)c(F)c1`
[A] > 100 µM

[Q] Provide TGI value for the following compound: `CC(C)(C)OC(=O)NCC(C#N)CNC(=O)OC(C)(C)C`
[A] > 100 µM

[Q] Provide TGI value for the following compound: CC1(C)C(=O)C(O)=CC2C1=CCC1C2(C)C(=O)CC2(C)C(C(C)(O)C(=O)CC(O)C(C)(C)O)C(O)CC12C (stereo not given)
[A] 7.1 µM

[Q] Provide TGI value for the following compound: `N#Cc1nc(CCCN2C(=O)c3ccccc3C2=O)oc1N`
[A] > 100 µM

[Q] Provide TGI value for the following compound: N#Cc1nc(C2CCC(=O)O2)oc1N (stereo not given)
[A] > 100 µM

[Q] Provide TGI value for the following compound: `CC(C)n1c(/C=C/[C@@H](O)C[C@@H](O)CC(=O)O)c(-c2ccc(F)cc2)c2ccccc21`
[A] > 100 µM

[Q] Provide TGI value for the following compound: `N#C/C(=C\c1cccc(Br)c1)c1nc2ccccc2c(=O)[nH]1`
[A] > 100 µM

[Q] Provide TGI value for the following compound: `N#CC(C#N)SCc1ccccc1`
[A] > 100 µM

[Q] Provide TGI value for the following compound: Cn1c2c(c3ccccc31)CCN1C(=O)C34CCCC3CC21S4 (stereo not given)
[A] > 100 µM

[Q] Provide TGI value for the following compound: `O=C1N/N=C\c2ccc(cc2)OCc2cccc(n2)COc2ccc(cc2)/C=N\NC1=O`
[A] > 25 µM

[Q] Provide TGI value for the following compound: `C[C@]12CC[C@@H]3c4ccc(O)c([N+](=O)[O-])c4CC[C@H]3[C@@H]1CC[C@@H]2NS(=O)(=O)c1ccc(C(F)(F)F)cc1`
[A] 4.68 µM

[Q] Provide TGI value for the following compound: `CC(=O)OCC(=O)O[C@@H]1[C@H]2[C@@H](OC(=O)c3ccccc3)[C@@H](C)C[C@]2(O)[C@H](OC(C)=O)[C@@]2(C)C[C@]1(OC(C)=O)C[C@H]1C(=O)C(C)(C)[C@@H](OC(C)=O)[C@@H]12`
[A] > 25 µM

[Q] Provide TGI value for the following compound: `COc1ccc(-c2cc(-c3ccc(Cl)cc3)c(C#N)c(=O)n2CCCCC(=O)Nc2ccccc2N)cc1`
[A] > 100 µM

[Q] Provide TGI value for the following compound: `CC1(C)OC[C@@H](C[C@H](O)COCc2ccccc2)O1`
[A] > 100 µM

[Q] Provide TGI value for the following compound: CCOc1ccc(NCC2CC/C(=C\C=C\c3ccccc3)C2=O)cc1 (stereo not given)
[A] 17.5 µM

[Q] Provide TGI value for the following compound: COc1ccc([C@H]2CC(=O)N3CCCC3N2)cc1 (stereo not given in full)
[A] > 100 µM

[Q] Provide TGI value for the following compound: `CCCO/N=[N+](\[O-])N(CC)CC`
[A] > 100 µM
